Origin of measurements: patent US20250320312A1

Molecular target: Peptide 5: Biotin-…-[Tyr(PC)]-acid
Sequence (peptide, as listed by the source): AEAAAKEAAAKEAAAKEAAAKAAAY
Assay: scFv ELISA
# OD450 listing for each entry below
assay-endpoint: OD450 (OD450)

• PcOxP_DB04_H07 (scFv, V domains shown, scFv in periplasmic extract) VH: EVQLLESGGGLVQPGGSLRLSCAASGFTFEDFYMEWVRQAPGKGLEWVAASRNKANDYTTEYADSVKGRFTISRDNSKNTLYLQMNSLRAEDTAVYYCARDYYGSSYWYFDVWGQGTLVTVSS VL: DIQMTQSPSSLSASVGDRVTITCTASESLYSSKHKVHYLAWYQQKPGKAPKLLIYGASNRVIGVPSRFSGSGSGTDFTLTISSLQPEDFATYYCAQFYSYPLTFGGGTKVEIK = 1.02
• PcOxP_DB04_D08 (scFv, V domains shown, scFv in periplasmic extract) VH: EVQLLESGGGLVQPGGSLRLSCAASGFTFSDHYMEWVRQAPGKGLEWVAASRNKANDYTTEYADSVKGRFTISRDNSKNTLYLQMNSLRAEDTAVYYCARDYYGSSYWYFDVWGQGTLVTVSS VL: DIQMTQSPSSLSASVGDRVTITCTASESLYSSKHKVHYLAWYQQKPGKAPKLLIYGASNRAIGVPSRFSGSGSGTDFTLTISSLQPEDFATYYCAQFYTYPLTFGGGTKVEIK = 1.96
• PcOxP_DB01_H04 (scFv, V domains shown, scFv in periplasmic extract) VH: EVQLLESGGGLVQPGGSLRLSCAASGFAFSDFYMEWVRQAPGKGLEWVAASRNKANDYTTEYADSVKGRFTISRDNSKNTLYLQMNSLRAEDTAVYYCARDYYGSHYWYFDVWGQGTLVTVSS VL: DIQMTQSPSSLSASVGDRVTITCTASESLYSSKHKVHYLAWYQQKPGKAPKLLIYGASNLQSGVPSRFSGSGSGTDFTLTISSLQPEDFATYYCAQFYYYPLTFGGGTKVEIK = 1.92
• PcOxP_DB04_F01 (scFv, V domains shown, scFv in periplasmic extract) VH: EVQLLESGGGLVQPGGSLRLSCAASGFTFSPFYMEWVRQAPGKGLEWVAASRNKANDYTTEYADSVKGRFTISRDNSKNTLYLQMNSLRAEDTAVYYCARDYYGSSYWYFDVWGQGTLVTVSS VL: DIVMTQSPDSLAVSLGERATINCTASESLYSSKHKVHYLAWYQQKPGQPPKLLIYGASNRYIGVPDRFSGSGSGTDFTLTISSLQAEDVAVYYCAQFYEYPLTFGGGTKVEIK = 0.85
• PcOxP_DB03_D08 (scFv, V domains shown, scFv in periplasmic extract) VH: EVQLLESGGGLVQPGGSLRLSCAASGFWFSDFYMEWVRQAPGKGLEWVAASRNKANDYTTEYADSVKGRFTISRDNSKNTLYLQMNSLRAEDTAVYYCARDYYGSAYWYFDVWGQGTLVTVSS VL: DIQMTQSPSSLSASVGDRVTITCTASESLYSSKHKVHYLAWYQQKPGKAPKLLIYGASNRYIGVPSRFSGSGSGTDFTLTISSLQPEDFATYYCAQFYSYPLTFGGGTKVEIK = 0.57
• PcOxP_DB01_D04 (scFv, V domains shown, scFv in periplasmic extract) VH: EVQLLESGGGLVQPGGSLRLSCAASGFTFSDFYMEWVRQAPGKGLEWVAASRNKANDYTTEYADSVKGRFTISRDNSKNTLYLQMNSLRAEDTAVYYCARDYYGSSYWYFDVWGQGTLVTVSS VL: DIVMTQSPDSLAVSLGERATINCTASESLWSSKHKVHYLAWYQQKPGQPPKLLIYGASNRYIGVPDRFSGSGSGTDFTLTISSLQAEDVAVYYCAQFYSYPLTFGGGTKVEIK = 0.87
• PcOxP_DB03_G03 (scFv, V domains shown, scFv in periplasmic extract) VH: EVQLLESGGGLVQPGGSLRLSCAASGFTSSDFYMEWVRQAPGKGLEWVAASRNKANDYTTEYADSVKGRFTISRDNSKNTLYLQMNSLRAEDTAVYYCARDYYGSSYWYFDVWGQGTLVTVSS VL: DIQMTQSPSSLSASVGDRVTITCTASQSISSSKHKVHYLAWYQQKPGKAPKLLIYGASNHYIGVPSRFSGSGSGTDFTLTISSLQPEDFATYYCAQFYSYPLTFGGGTKVEIK = 1.8
• PcOxP_DB04_D10 (scFv, V domains shown, scFv in periplasmic extract) VH: EVQLLESGGGLVQPGGSLRLSCAASGFTGSDFYMEWVRQAPGKGLEWVAASRWKANDYTTEYADSVKGRFTISRDNSKNTLYLQMNSLRAEDTAVYYCARDYYGSSYWYFDVWGQGTLVTVSS VL: DIVMTQSPDSLAVSLGERATINCTASESLYSTKHKVHYLAWYQQKPGQPPKLLIYGASHRYIGVPDRFSGSGSGTDFTLTISSLQAEDVAVYYCAQFYQYPLTFGGGTKVEIK = 1.35
• PcOxP_DB01_F03 (scFv, V domains shown, scFv in periplasmic extract) VH: EVQLLESGGGLVQPGGSLRLSCAASGFTFSDSYMEWVRQAPGKGLEWVAASRNKYNDYTTEYADSVKGRFTISRDNSKNTLYLQMNSLRAEDTAVYYCARDYYGSSYWYFDVWGQGTLVTVSS VL: DIVMTQSPDSLAVSLGERATINCTASESLYSSKHKVHYLAWYQQKPGQPPKLLIYGASNRYIGVPDRFSGSGSGTDFTLTISSLQAEDVAVYYCAQFYSYPLTFGGGTKVEIK = 1.41
• PcOxP_DB03_G06 (scFv, V domains shown, scFv in periplasmic extract) VH: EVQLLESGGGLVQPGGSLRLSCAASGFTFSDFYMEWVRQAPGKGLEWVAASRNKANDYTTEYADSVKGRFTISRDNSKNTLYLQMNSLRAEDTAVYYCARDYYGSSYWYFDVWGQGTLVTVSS VL: DIQMTQSPSSLSASVGDRVTITCTASESLYSSKHKVHYLAWYQQKPGKAPKLLIYGASNRYIGVPSRFSGSGSGTDFTLTISSLQPEDFATYYCAQFYEYPLTFGGGTKVEIK = 2.01
